FYI, the data here is from the RNAGym collection of RNA variant scans (doi:10.1126/science.aae0568).

B1: tRNA (parent)
chain: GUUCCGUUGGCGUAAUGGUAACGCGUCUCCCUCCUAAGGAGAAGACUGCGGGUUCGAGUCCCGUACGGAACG

Variants of: B1
Assay: yeast fitness relative to wild type (ratio to wild type); higher = fitter; tRNA-Arg(CCU), competitive growth, 37 C, YPD
This sample holds only a part of the variants without activity.
observed property: yeast fitness

>>> result("U19A G38C G56C")
"≤ 0.5"
>>> result("C31U U54A C62G G68C")
"≤ 0.5"
>>> result("G6C C22A G41A G44C C49U")
"≤ 0.5"

Consider the following items and state reported yeast fitness for each.
1. C30U G44A G48C
2. G9A A15U C33G G39A C62A
3. U3C A14G C30G A43C
4. U2G C24G C29G C31G U64C
5. C5U U19G U53A
6. G41A C66A
7. C4A A20U A43U A57C

1: ≤ 0.5; 2: ≤ 0.5; 3: ≤ 0.5; 4: ≤ 0.5; 5: 0.529; 6: 0.687; 7: ≤ 0.5
